Below: a set of entries, each annotated with reported shrunken log2 fold change.
Tested on: Escherichia coli TOP10
PROCEDURE DETAILS: shrunken log2 fold change of peptide-encoding DNA abundance (4.5 h post-induction vs induction); higher = less antimicrobial activity (less host growth inhibition)
DETAILS: time post-induction: 4.5 h; library: site-saturation at positions 5, 18, 19, 20
A bare number is all that is needed in reply.

Example entries and their recorded answers appear below.
RRIRGRPPRLPRPRPRPWWTPRP | -0.124
RRIRHRPPRLPRPRPRPQILPRP | -0.0081
RRIRIRPPRLPRPRPRPMSFPRP | -0.178
RRIRNRPPRLPRPRPRPSINPRP | -0.537
RRIRQRPPRLPRPRPRPTMIPRP | 0.151
RRIRVRPPRLPRPRPRPWQPPRP | 0.146
RRIRWRPPRLPRPRPRPYCEPRP | -0.481
RRIRERPPRLPRPRPRPKAEPRP | 0.0519
RRIRMRPPRLPRPRPRPQIYPRP | -0.464
RRIRERPPRLPRPRPRPDMIPRP | 0.0157

Prompt: Could you tell me which shrunken log2 fold change is on file for RRIRIRPPRLPRPRPRPKWHPRP ?
Response: -0.27

Prompt: Could you tell me which shrunken log2 fold change is on file for RRIRWRPPRLPRPRPRPTYFPRP ?
Response: -0.359

---

Tested on: Escherichia coli TOP10
PROCEDURE DETAILS: shrunken log2 fold change of peptide-encoding DNA abundance (4.5 h post-induction vs induction); higher = less antimicrobial activity (less host growth inhibition)
DETAILS: time post-induction: 4.5 h; library: site-saturation at positions 5, 18, 19, 20
Below: a set of entries, each annotated with reported shrunken log2 fold change.
A bare number is all that is needed in reply.

Prompt: Could you tell me which shrunken log2 fold change is on file for RRIRRRPPRLPRPRPRPREKPRP ?
Response: 0.0627

Prompt: Could you tell me which shrunken log2 fold change is on file for RRIRGRPPRLPRPRPRPYYCPRP ?
Response: -0.172

Prompt: Could you tell me which shrunken log2 fold change is on file for RRIRCRPPRLPRPRPRPYNHPRP ?
Response: -0.416

---

Tested on: Escherichia coli TOP10;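 further: peptides expressed intracellularly from a pBAD plasmid library in pooled LB shake-flask culture, induced with 0.3% L-arabinose, DNA abundance read by NGS, three biological replicates, DESeq2 with apeglm shrinkage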
PROCEDURE DETAILS: shrunken log2 fold change of peptide-encoding DNA abundance (4.5 h post-induction vs induction); higher = less antimicrobial activity (less host growth inhibition)
DETAILS: time post-induction: 4.5 h; library: site-saturation at positions 5, 18, 19, 20
OBSERVED PROPERTY: shrunken log2 fold change
A bare number is all that is needed in reply.

Example entries and their recorded answers appear below.
RRIRVRPPRLPRPRPRPNMFPRP | -0.103
RRIRGRPPRLPRPRPRPCRLPRP | 0.123

Prompt: Observed shrunken log2 fold change on Escherichia coli TOP10 for RRIRARPPRLPRPRPRPGQTPRP , please.
Response: 0.178

Prompt: Observed shrunken log2 fold change on Escherichia coli TOP10 for RRIRVRPPRLPRPRPRPMRQPRP , please.
Response: 0.0326

Prompt: Observed shrunken log2 fold change on Escherichia coli TOP10 for RRIRGRPPRLPRPRPRPWYFPRP , please.
Response: -0.417

Prompt: Observed shrunken log2 fold change on Escherichia coli TOP10 for RRIRTRPPRLPRPRPRPCPKPRP , please.
Response: 0.0604

Prompt: Observed shrunken log2 fold change on Escherichia coli TOP10 for RRIRARPPRLPRPRPRPAMPPRP , please.
Response: -0.131
